Origin of the recorded values: ChEMBL document CHEMBL1131307

Species: Homo sapiens
Assay: In vitro metabolism in human liver microsomes
measure: Metabolism (pmol/min/mg)
Report as a plain number; the unit pmol/min/mg is understood.

Incoming: Value lookup for Metabolism; key = CCN1c2ncc(CSc3ccccc3)cc2C(=O)N(C)c2ccc(Cl)nc21
Outgoing: 554

Incoming: I am curious: what Metabolism value has been reported for CCN1c2ncc(CCc3ccncc3)cc2C(=O)N(C)c2ccc(Cl)nc21 ?
Outgoing: 145

Incoming: What measured Metabolism goes with CCN1c2ncc(CCc3ccccc3)cc2C(=O)N(C)c2ccc(Cl)nc21 ?
Outgoing: 288

----------
Please go through the items and note down their pIC50.
Biological target: Human immunodeficiency virus type 1 reverse transcriptase (Human immunodeficiency virus 1, UniProt Q72547, Y188L)
Test: Inhibitory activity against HIV-1 Y188L reverse transcriptase.
Keep in mind that pIC50 stands for -log10 of concentration in molar terms.

Incoming: pIC50 for CCN1c2ncc(COc3cccc(N)c3)cc2C(=O)N(C)c2ccc(Cl)nc21 ?
Outgoing: 6.43

Incoming: May I ask what pIC50 has been recorded for CCN1c2ncc(CSc3[nH]cnc4nncc3-4)cc2C(=O)N(C)c2ccc(Cl)nc21 ?
Outgoing: 6.92

Incoming: Which value of pIC50 has been reported for CCN1c2ncc(COc3ccncc3)cc2C(=O)N(C)c2cccnc21 in the records?
Outgoing: 5.26

Incoming: Given the compound CCN1c2ncc(COc3cccc4[nH]ccc34)cc2C(=O)N(C)c2ccc(Cl)nc21 , what is its reported pIC50?
Outgoing: 5.87

Incoming: Can you look up the measured pIC50 of CCN1c2ncc(COc3cc[n+]([O-])c(C)c3)cc2C(=O)N(C)c2ccc(Cl)nc21 for me?
Outgoing: 5.37

Incoming: Item CCN1c2ncc(CS(=O)(=O)c3ccccc3)cc2C(=O)N(C)c2ccc(Cl)nc21 has what recorded pIC50?
Outgoing: 4.96

Incoming: Data request, read-out pIC50, for CCN1c2ncc(COc3ccnc(C)c3)cc2C(=O)N(C)c2ccc(Cl)nc21
Outgoing: 6.64

Incoming: So what does the record say about pIC50 for CCN1c2ncc(COc3ccccc3)cc2C(=O)N(C)c2ccc(Cl)nc21 ?
Outgoing: 6.19
